Ref: the supplement of paper PMC7125110

B1: glmS ribozyme (parent)
chain: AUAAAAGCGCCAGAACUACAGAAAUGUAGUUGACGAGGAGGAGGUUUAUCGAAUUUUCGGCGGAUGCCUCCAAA

Variants of: B1
PROTOCOL_DETAILS: kcat; higher = faster cleavage; RNA array
DETAILS: with glucosamine-6-phosphate
This sample holds only a part of the variants without activity.
MEASURED_PROPERTY: kcat (s⁻¹)
Provide the reading as a plain figure in s⁻¹.

>  <VARIANT_IDENTIFIER>
G37A A42G

>  <kcat, s⁻¹>
0.00683

$$$$
>  <VARIANT_IDENTIFIER>
U46G G66A

>  <kcat, s⁻¹>
0.00746

$$$$
>  <VARIANT_IDENTIFIER>
A14C G41U

>  <kcat, s⁻¹>
0.000291

$$$$
>  <VARIANT_IDENTIFIER>
U30C G41A

>  <kcat, s⁻¹>
1.28e-05

$$$$
>  <VARIANT_IDENTIFIER>
U31G A48U U55G A64G

>  <kcat, s⁻¹>
0.000666

$$$$
>  <VARIANT_IDENTIFIER>
U47G U57G

>  <kcat, s⁻¹>
6.2e-05

$$$$
>  <VARIANT_IDENTIFIER>
C61A C67A

>  <kcat, s⁻¹>
6.65e-05

$$$$
>  <VARIANT_IDENTIFIER>
G13A G66U

>  <kcat, s⁻¹>
1.72e-05

$$$$

## Task Give me measured kcat, please, for this variant: U46C U65A
## Result 0.00399

## Task For the variant C16U U55C C70U , give its reported kcat.
## Result 0.000581

## Task Return reported kcat. Input variant: G32C A53G
## Result 0.000158
